Below: a set of entries, each annotated with reported ATPase activity (% of PKA-phosphorylated CFTR).
target: Purified human wt-CFTR (His10-SUMO*-CFTRFLAG-EGFP), PKA phosphorylated (human, UniProt P13569 1-1480, PKA phosphorylated (sites not given)); assay: cell-based or functional assay
Sequence (P13569 whole entry): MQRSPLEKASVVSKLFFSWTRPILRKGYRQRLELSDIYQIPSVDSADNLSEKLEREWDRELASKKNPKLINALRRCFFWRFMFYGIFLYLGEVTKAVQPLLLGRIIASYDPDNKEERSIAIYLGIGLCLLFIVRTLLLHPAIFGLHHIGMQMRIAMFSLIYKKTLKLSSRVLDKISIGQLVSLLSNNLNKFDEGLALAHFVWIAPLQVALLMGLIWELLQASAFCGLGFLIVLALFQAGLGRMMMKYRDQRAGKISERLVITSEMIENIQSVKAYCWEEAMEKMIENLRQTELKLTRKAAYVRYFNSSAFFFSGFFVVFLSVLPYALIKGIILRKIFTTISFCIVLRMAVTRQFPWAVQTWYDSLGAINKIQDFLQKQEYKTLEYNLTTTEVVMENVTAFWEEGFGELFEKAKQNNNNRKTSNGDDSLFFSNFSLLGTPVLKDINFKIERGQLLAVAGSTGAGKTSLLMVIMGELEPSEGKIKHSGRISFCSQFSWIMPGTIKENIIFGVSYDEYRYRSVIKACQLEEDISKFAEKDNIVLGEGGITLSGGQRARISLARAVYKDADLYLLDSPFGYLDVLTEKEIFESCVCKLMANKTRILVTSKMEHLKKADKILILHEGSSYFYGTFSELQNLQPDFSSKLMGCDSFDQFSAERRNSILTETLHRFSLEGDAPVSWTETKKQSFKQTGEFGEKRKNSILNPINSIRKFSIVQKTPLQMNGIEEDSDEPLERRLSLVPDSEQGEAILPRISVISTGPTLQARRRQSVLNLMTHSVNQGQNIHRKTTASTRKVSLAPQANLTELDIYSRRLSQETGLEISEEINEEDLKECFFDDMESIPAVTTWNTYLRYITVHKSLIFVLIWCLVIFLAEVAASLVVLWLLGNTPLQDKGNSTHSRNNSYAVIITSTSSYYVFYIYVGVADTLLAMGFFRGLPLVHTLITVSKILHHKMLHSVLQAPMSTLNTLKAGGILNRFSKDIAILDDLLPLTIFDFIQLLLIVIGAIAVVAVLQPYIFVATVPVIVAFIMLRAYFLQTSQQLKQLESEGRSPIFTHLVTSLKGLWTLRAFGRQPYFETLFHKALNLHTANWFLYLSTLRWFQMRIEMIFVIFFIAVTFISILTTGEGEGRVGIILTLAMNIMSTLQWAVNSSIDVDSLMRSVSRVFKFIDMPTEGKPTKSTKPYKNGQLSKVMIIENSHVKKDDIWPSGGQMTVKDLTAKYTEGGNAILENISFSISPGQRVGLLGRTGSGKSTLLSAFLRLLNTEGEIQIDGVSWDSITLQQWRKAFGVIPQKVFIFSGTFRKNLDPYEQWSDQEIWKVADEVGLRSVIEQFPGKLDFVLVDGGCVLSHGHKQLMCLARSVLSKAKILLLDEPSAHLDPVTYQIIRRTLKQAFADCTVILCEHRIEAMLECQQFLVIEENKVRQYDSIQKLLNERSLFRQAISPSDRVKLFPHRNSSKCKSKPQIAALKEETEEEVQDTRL
Give the value in % but do not write % after it.

Sample records with ATPase activity (% of PKA-phosphorylated CFTR):
binder: Nanobody T8 (VHH, not shown: small tags and cut ends, Llama nanobody; also called Nb T8; T8 Nb) VHH: QVQLQESGGGLVQPGGSLRLSCAASGSTSSINAMGWYRQAPGKQREPVAISSSGGDTRYAEPVKGRFTISRDNAQNKVYLQMNSLKPEDTAVYYCWLNWGRTSVNSWGQGTQVTVSS
measured.number: 60
//
binder: Nanobody T27 (VHH, not shown: small tags and cut ends, Llama nanobody; also called NbT27; T27 Nb) VHH: QVQLQESGGGLEQPGGSLRLSCATSGVIFGINAMGWYRQAPGKQRELVATFTSGGSTNYADFVEGRFTISRDNAKNTVYLQMNGLRPEDTAVYYCHATVVVSRYGLTYDYWGQGTQVTVSS
measured.number: 30
//
binder: Nanobody T2a (VHH, not shown: small tags and cut ends, Llama nanobody; also called Nb T2a; T2a Nb) VHH: QVQLQESGGGLVQAGGSLRLSCAASGSIFRIDAMGWYRQAPGKQRELVAHSTSGGSTDYADSVKGRFTISRDNAKNTVYLQMNSLKPEDTAVYYCNADVRTRWYASNNYWGQGTQVTVSS
measured.number: 50

Now for another entry.
Consider the binder shown here: Nanobody D12 (VHH, not shown: small tags and cut ends, Llama nanobody raised against 2PT-NBD1; produced in E. coli periplasm; also called Nb D12; D12 Nb) VHH: QVQLQESGGGLVQAGSSLRLACAATGSIRSINNMGWYRQAPGKQRGMVAIITRVGNTDYADSVKGRFTISRDNAKNTVYLQMNSLKPEDTATYYCHAEITEQSRPFYLTDDYWGQGTQVTVSS What is its recorded ATPase activity (% of PKA-phosphorylated CFTR)?
50
